- measured on: panel of 442 kinases (Homo sapiens)
- Construct: purchased Ambit Biosciences (scanMAXX KINOMEscan)
- assay overview: biochemical
- Type: binding
- setup conditions: AXL; 1 µM; read-out: % of control at 1 µM
Here the recorded remaining activity at 1 µM is given for each entry.
Numbers only here, please. The scale is %.

structure_string=COc1ncc(-c2ccc3nccc(-c4ccnnc4)c3c2)cc1NS(=O)(=O)c1ccc(F)cc1F result_units=% observed=100

Req: Given the entry FC(F)c1nc2ccccc2n1-c1nc(N2CCOCC2)nc(N2CCOCC2)n1 , report its measured remaining activity at 1 µM.
Resp: 93

Req: # input compound: Nc1cc(C(F)(F)F)c(-c2cc(N3CCOCC3)nc(N3CCOCC3)n2)cn1 ; wanted: its remaining activity at 1 µM
Resp: 89

Req: Find the recorded remaining activity at 1 µM belonging to Cn1c(=O)n(-c2ccc(C(C)(C)C#N)cc2)c2c3cc(-c4cnc5ccccc5c4)ccc3ncc21 and report it.
Resp: 48

----------
- measured on: panel of 442 kinases (Homo sapiens, UniProt Q9BWU1)
- Construct: purchased Ambit Biosciences (scanMAXX KINOMEscan)
- Sequence (Q9BWU1 whole entry): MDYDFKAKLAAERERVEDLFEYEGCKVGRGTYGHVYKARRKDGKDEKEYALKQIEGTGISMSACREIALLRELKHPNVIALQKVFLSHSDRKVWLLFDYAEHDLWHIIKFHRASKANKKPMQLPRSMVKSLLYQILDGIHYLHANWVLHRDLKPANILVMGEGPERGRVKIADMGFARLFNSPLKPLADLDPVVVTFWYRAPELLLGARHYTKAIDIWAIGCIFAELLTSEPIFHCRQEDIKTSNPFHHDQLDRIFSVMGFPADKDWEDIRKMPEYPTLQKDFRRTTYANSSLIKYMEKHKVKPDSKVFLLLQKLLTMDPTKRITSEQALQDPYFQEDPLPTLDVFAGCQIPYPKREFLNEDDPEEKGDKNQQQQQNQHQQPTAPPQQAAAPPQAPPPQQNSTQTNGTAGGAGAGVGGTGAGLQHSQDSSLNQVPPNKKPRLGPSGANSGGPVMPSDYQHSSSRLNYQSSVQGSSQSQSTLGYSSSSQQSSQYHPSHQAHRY
- assay overview: biochemical
- Format: binding
- setup conditions: CDK11; 1 µM; read-out: % of control at 1 µM
reported endpoint: remaining activity at 1 µM (%)
Report the value in % with no unit label.

compound="Cn1c(=O)n(-c2ccc(C(C)(C)C#N)cc2)c2c3cc(-c4cnc5ccccc5c4)ccc3ncc21 [Dactolisib]" measured_on="panel of 442 kinases (Homo sapiens, UniProt Q9BWU1)" result_units=% observed=88
compound="FC(F)c1nc2ccccc2n1-c1nc(N2CCOCC2)nc(N2CCOCC2)n1 [ZSTK474]" measured_on="panel of 442 kinases (Homo sapiens, UniProt Q9BWU1)" result_units=% observed=88
compound="COc1ncc(-c2ccc3nccc(-c4ccnnc4)c3c2)cc1NS(=O)(=O)c1ccc(F)cc1F [Omipalisib]" measured_on="panel of 442 kinases (Homo sapiens, UniProt Q9BWU1)" result_units=% observed=64

Please examine the following record next.
Req: # lookup: remaining activity at 1 µM of Nc1cc(C(F)(F)F)c(-c2cc(N3CCOCC3)nc(N3CCOCC3)n2)cn1 [Buparlisib]
Resp: 100

----------
Catalogue of remaining activity at 1 µM values
- measured on: panel of 442 kinases (Homo sapiens, UniProt Q8NFD2)
- Construct: purchased Ambit Biosciences (scanMAXX KINOMEscan)
- Sequence (Q8NFD2 whole entry): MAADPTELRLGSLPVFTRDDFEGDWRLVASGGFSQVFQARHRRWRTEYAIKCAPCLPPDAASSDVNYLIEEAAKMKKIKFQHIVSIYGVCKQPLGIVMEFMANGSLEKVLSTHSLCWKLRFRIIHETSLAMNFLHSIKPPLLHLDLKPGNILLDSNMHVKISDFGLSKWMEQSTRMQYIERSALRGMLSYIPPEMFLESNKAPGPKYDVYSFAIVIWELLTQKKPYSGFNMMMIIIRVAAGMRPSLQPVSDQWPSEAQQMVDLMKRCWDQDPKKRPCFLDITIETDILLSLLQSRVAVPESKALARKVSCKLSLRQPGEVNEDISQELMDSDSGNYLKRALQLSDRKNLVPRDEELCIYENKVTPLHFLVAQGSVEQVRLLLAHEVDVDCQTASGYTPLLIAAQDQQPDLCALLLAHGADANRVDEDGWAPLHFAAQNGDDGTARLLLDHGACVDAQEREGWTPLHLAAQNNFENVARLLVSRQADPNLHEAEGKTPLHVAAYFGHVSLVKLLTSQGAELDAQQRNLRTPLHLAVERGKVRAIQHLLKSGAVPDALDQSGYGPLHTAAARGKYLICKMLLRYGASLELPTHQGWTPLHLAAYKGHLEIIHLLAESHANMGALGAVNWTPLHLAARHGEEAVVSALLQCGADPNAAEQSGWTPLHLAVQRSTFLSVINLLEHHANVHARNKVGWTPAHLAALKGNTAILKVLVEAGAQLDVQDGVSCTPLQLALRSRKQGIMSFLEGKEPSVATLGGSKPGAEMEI
- assay overview: biochemical
- Format: binding
- setup conditions: ANKK1; 1 µM; read-out: % of control at 1 µM
Reply numerically in %, unit not repeated.

molecule="Cn1c(=O)n(-c2ccc(C(C)(C)C#N)cc2)c2c3cc(-c4cnc5ccccc5c4)ccc3ncc21 [Dactolisib]" observed=100

Req: remaining activity at 1 µM of FC(F)c1nc2ccccc2n1-c1nc(N2CCOCC2)nc(N2CCOCC2)n1 [ZSTK474] on panel of 442 kinases (Homo sapiens, UniProt Q8NFD2)?
Resp: 100

Req: API: value(readout= remaining activity at 1 µM, system= panel of 442 kinases (Homo sapiens, UniProt Q8NFD2), query= COc1ncc(-c2ccc3nccc(-c4ccnnc4)c3c2)cc1NS(=O)(=O)c1ccc(F)cc1F [Omipalisib] )
Resp: 100

Req: # query: remaining activity at 1 µM | item Nc1cc(C(F)(F)F)c(-c2cc(N3CCOCC3)nc(N3CCOCC3)n2)cn1 [Buparlisib] | system: panel of 442 kinases (Homo sapiens, UniProt Q8NFD2)
Resp: 91
